- test.system: T1, recombinant human galectin-7 (human, UniProt P47929 1-136)
- T1 construct: Prototypic galectin with one CRD; also called hGAL-7; human GAL-7
- T1 sequence (P47929 whole entry): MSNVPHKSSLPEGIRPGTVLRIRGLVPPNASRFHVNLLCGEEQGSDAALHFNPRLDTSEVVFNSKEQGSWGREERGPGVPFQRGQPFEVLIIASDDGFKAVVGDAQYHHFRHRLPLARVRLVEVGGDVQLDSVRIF
- method: ELISA of the selected nanobody clone on hGAL-7 with His-tagged MBP as control; y axis 'ELISA Ratio'; no concentration given
endpoint.label: binding result

INSERT INTO measurements (binder, result) VALUES
  ('Nanobody 218_D11 (VHH, 178 aa with the tag, so CDR3 has 12 residues, which fits CDR set (b) or (d)) VHH: EVQLQASGGGFVQPGGSLRLSCAASGDTSRFDVMGWFRQAPGKEREFVSAISWWSSDHIYYADSVKGRFTISRDNSKNTVYLQMNSLRAEDTATYYCAYGEYPPRMNRRPYWGQGTQVTVSS', 'binds'),
  ('Nanobody 219_H09 (VHH, 184 aa with the tag, so CDR3 has 18 residues, which fits CDR set (g) or (i)) VHH: EVQLQASGGGFVQPGGSLRLSCAASGSTSYGETMGWFRQAPGKEREFVSAISYYSTRKPYYADSVKGRFTISRDNSKNTVYLQMNSLRAEDTATYYCAIVAYIYADGVRGYHQKIDYWGQGTQVTVSS', 'binds');
